Exercise: state measured IC50 for each of the compounds provided.
assayed_target: c-KIT T670I kinase (Homo sapiens, UniProt P10721, T670I)
Construct: The construct contains residues T544-V976 of cKit; GST (N); TEV cleavage site (internal)
Sequence (P10721 544-976 T670I): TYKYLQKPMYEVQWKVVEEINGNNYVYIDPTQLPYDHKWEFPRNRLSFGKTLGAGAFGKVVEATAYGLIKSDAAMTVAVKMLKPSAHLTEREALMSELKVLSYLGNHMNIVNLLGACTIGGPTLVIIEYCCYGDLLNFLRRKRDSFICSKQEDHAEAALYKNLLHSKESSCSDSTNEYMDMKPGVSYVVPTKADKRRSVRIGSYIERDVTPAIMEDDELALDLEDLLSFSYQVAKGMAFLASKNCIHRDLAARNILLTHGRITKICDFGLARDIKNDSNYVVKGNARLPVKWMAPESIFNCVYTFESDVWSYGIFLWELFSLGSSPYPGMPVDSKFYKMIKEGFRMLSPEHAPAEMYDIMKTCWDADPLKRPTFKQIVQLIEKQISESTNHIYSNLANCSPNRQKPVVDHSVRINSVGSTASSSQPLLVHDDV
measurement_description: c-KIT T670I kinase assay
settings: enzymatic assay

For this compound ( `CCn1c(=O)c(-c2cc(NC(=O)Nc3cc(F)cc(F)c3)c(F)cc2Cl)cc2cnc(NC)cc21` ), measured IC50 is 10 to 100 nM

For this compound ( `CCn1c(=O)c(-c2cc(NC(=O)Nc3cccc(F)c3)c(F)cc2C)cc2cnc(NC(=O)N(C)C)cc21` ), measured IC50 is 10 to 100 nM

For this compound ( `CCn1c(=O)c(-c2cc(NC(=O)Nc3cc(F)cc(F)c3)c(F)cc2C)cc2cnc(NC(=O)N(C)C)cc21` ), measured IC50 is 10 to 100 nM

For this compound ( `CCn1c(=O)c(-c2cc(NC(=O)Nc3ccccc3)c(F)cc2Br)cc2cnc(NC(=O)N(C)C)cc21` ), measured IC50 is 10 to 100 nM

For this compound ( `CCn1c(=O)c(-c2cc(NC(=O)Nc3cc(F)ccc3F)c(F)cc2C)cc2cnc(NC)cc21` ), measured IC50 is < 10 nM
